Molecular target: human mAChR M4 (Homo sapiens, UniProt P08173)
Construct: expressed in transfected cells; host or cells: CHO-K1 (American Type Culture Collection), stably expressing hM4 and Gqi5
Sequence (P08173 1-479): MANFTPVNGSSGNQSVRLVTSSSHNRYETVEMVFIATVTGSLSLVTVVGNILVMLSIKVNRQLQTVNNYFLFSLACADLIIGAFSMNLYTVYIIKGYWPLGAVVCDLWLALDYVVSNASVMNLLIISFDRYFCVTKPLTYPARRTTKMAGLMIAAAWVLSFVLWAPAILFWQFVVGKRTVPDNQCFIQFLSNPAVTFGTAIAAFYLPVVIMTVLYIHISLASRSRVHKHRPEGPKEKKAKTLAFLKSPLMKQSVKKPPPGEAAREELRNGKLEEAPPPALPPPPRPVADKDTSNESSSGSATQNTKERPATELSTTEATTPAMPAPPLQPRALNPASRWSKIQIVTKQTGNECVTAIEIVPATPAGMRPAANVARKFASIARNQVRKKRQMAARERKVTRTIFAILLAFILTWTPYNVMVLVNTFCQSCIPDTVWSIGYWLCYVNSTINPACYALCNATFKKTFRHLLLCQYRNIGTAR
Experiment: mAChR M4 cell-based functional assay: calcium mobilization (Fluo-4, FDSS), potentiation of EC20 acetylcholine response in hM4-Gqi5 CHO-K1 cells
Conditions: CHO-K1, % ACh maximum at 30 μM; human M4
property-measured: Emax at 30 µM (%)

{"columns": ["input-smiles", "property-measured", "endpoint-unit", "recorded-value"],
 "data": [
  ["Cc1c(N2CCc3ncc(-c4ccnnc4)cc3C2)nn2c(=O)ccnc2c1C", "Emax at 30 µM", "%", 96],
  ["COCc1cc(=O)n2nc(N3CCc4ncc(-c5cnc(F)cc5C)cc4C3)c(C)c(C)c2n1", "Emax at 30 µM", "%", 90],
  ["Cc1c(N2CCc3ncc(-c4cnn(C5CCOCC5)c4)cc3C2)nn2c(=O)ccnc2c1C", "Emax at 30 µM", "%", 64],
  ["Cc1cc(=O)n2nc(N3CCc4ncc(-c5cnn(CC(F)(F)F)c5)cc4C3)c(C)c(C)c2n1", "Emax at 30 µM", "%", 80],
  ["Cc1cncc(-c2cnc3c(c2)CN(c2nn4c(=O)ccnc4c(C)c2C)CC3)c1", "Emax at 30 µM", "%", 80],
  ["Cc1cc(=O)n2nc(N3CCc4ncc(N5CCOC(C)(C)C5)cc4C3)c(C)c(C)c2n1", "Emax at 30 µM", "%", 96],
  ["Cc1cc2nccc(=O)n2nc1N1CCc2ncc(Nc3ccccc3F)cc2C1", "Emax at 30 µM", "%", 90],
  ["Cc1cc2nccc(=O)n2nc1N1CCc2ncc(-c3cc(F)cc(F)c3C)cc2C1", "Emax at 30 µM", "%", 83]
]}
